Values were extracted from patent US20260028354A1.

- assayed.system: ER in MCF-7 cells (Homo sapiens (Human), UniProt P03372)
- Sequence (P03372 whole entry): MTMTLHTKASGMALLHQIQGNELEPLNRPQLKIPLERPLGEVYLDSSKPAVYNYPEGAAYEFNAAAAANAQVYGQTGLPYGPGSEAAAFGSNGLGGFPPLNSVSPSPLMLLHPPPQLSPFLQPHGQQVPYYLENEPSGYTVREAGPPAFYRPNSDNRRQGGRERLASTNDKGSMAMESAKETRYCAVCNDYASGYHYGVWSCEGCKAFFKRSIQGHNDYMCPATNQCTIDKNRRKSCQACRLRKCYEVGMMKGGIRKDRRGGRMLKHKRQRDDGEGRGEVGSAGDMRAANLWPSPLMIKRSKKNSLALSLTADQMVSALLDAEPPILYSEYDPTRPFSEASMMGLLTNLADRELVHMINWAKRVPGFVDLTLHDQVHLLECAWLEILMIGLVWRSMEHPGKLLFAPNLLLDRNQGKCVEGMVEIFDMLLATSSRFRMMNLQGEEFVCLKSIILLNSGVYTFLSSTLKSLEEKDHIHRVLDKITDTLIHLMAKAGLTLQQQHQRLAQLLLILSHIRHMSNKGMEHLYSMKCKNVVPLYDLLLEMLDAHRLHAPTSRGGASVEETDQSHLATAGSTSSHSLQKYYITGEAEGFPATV
- test.details: In-cell Western (ICW) ER degradation assay in MCF-7 cells
- Assay type: cell-based
- assay.setup: MCF7, read-out: MCF7 Dmax, MCF-7, maximal ER degradation, 16 hrs treatment
Measured Dmax by item
measurement.type: Dmax

COc1cc(N2CCC3(CC2)CC(CN2CCC4(CC2)COc2c4cc4c(c2Cl)C(=O)N([C@H]2CCC(=O)NC2=O)C4)C3)c(F)cc1[C@@H]1c2ccc(O)cc2CC[C@@H]1c1ccccc1
> 75%
COc1cc(N2CCC3(CC[C@@H](CN4CCC5(CC4)COc4c5cc(C)c5c4CN([C@H]4CCC(=O)NC4=O)C5=O)CO3)CC2)c(F)cc1[C@@H]1c2ccc(O)cc2CC[C@@H]1c1ccccc1
> 75%
O=C1CC[C@H](N2Cc3cc4c(cc3C2=O)OCC42CCN(CC3CC4(CCN(c5ccc([C@@H]6c7ccc(O)cc7CC[C@@H]6c6ccccc6)cc5)CC4)C3)CC2)C(=O)N1
50 to 75%
COc1cc(N2CCC3(CC2)CC(CN2CCC4(CC2)COc2c4cc(Cl)c4c2CN([C@H]2CCC(=O)NC2=O)C4=O)C3)c(F)cc1[C@@H]1c2ccc(O)cc2CC[C@@H]1c1ccccc1
> 75%
O=C1CC[C@H](N2Cc3c(ccc4c3OCC43CCN(CC4CCC5(CC4)CN(c4ccc([C@@H]6c7ccc(O)cc7CC[C@@H]6c6ccccc6)cc4F)C5)CC3)C2=O)C(=O)N1
50 to 75%
O=C1CC[C@@H](N2Cc3cc4c(cc3C2=O)OC[C@H]2CN(CC3COC5(C3)CN(c3ccc([C@H]6c7ccc(O)cc7CC[C@H]6c6ccccc6)cc3)C5)CCN42)C(=O)N1 (stereo in doubt)
> 75%
O=C1CC[C@H](N2Cc3cc4c(cc3C2=O)OCC42CCN(CC3CCC4(CC3)CN(c3ccc([C@@H]5c6ccc(O)cc6CC[C@@H]5c5ccccc5)cn3)C4)CC2)C(=O)N1
50 to 75%
COc1cc(N2CCC3(CC[C@H](CN4CCC5(CC4)COc4c5cc(Cl)c5c4CN([C@H]4CCC(=O)NC4=O)C5=O)CO3)CC2)c(F)cc1[C@@H]1c2ccc(O)cc2CC[C@@H]1c1ccccc1
> 75%
COc1cc(N2CCC3(CC2)CC(CN2CCC4(CC2)COc2c4ccc4c2CN([C@H]2CCC(=O)NC2=O)C4=O)C3)ccc1[C@@H]1c2ccc(O)cc2CC[C@@H]1c1ccccc1
> 75%
COc1cc(N2CCC(CN3CC[C@]4(c5ccc(N[C@@H]6CCC(=O)NC6=O)cc5)[C@H](C3)C4(F)F)CC2)ccc1[C@@H]1c2ccc(O)cc2CC[C@@H]1c1ccccc1
25 to 50%
